Test: Single dose study: plasma pharmacokinetics of eplerenone, open lactone ring form, spironolactone
Conditions: male, human, plasma, po, 50 mg
Observed Property: AUC(0-t) (ng·h/mL)
Numbers only here, please. The scale is ng·h/mL.

q: Record request: AUC(0-t) value, item COC(=O)C1CC2=CC(=O)CCC2(C)C23OC2CC2(C)C(CC[C@@]24CCC(=O)O4)C13 (stereo partly shown)
a: 4020

----------
Experiment: Effect of food study: plasma pharmacokinetics fasted vs high-fat breakfast
Type: in vivo, humans
Conditions: male, human, plasma, oral, 100 mg, 100 mg eplerenone capsule; High Fat Breakfast; 1.0 hours after dosing
Observed Property: concentration at 1 h (ng/mL)
Express it in ng/mL; write the number only.

q: // returns reported concentration at 1 h for input COC(=O)C1CC2=CC(=O)CCC2(C)C23OC2CC2(C)C(CC[C@@]24CCC(=O)O4)C13 (stereo partly shown)
a: 366
